Field: normalized growth. Provide a value for each of the molecules that follow.
experiment: chemical genetic growth profiling, strain panel (AID 1159580);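 note: tested at 20 µM; growth read once vehicle control cultures reached saturation at 30 °C; 1 = growth at the plate median or of vehicle wells; lower values mean less growth of the strain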; conditions: S. cerevisiae deletion strains, growth OD, locus YMR307W, strain GAS1, active compounds read low
In all, about 5,500 compounds went through this assay and about 2,000 (36%) were called active. Another 18% or so got no clear call; they are omitted. This is one part of the list.
Please state the value as a number alone, without comment.

**Q:** Sample O=C(c1ccccc1)c1ccc2n1CCC2C(=O)O (centres undefined) — what was its normalized growth?
**A:** 0.985

**Q:** Which normalized growth value belongs to CCCCN(CC)c1c([N+](=O)[O-])cc(C(F)(F)F)cc1[N+](=O)[O-] ?
**A:** 0.998

**Q:** Sample COC(=O)c1cc(OC)c(=O)c2c(OC)c(OC)ccc2c1 — what was its normalized growth?
**A:** 1.01

**Q:** Consider the molecule shown here: CCCN1CCCC2Cc3[nH]ncc3CC21 (centres undefined) What is its recorded normalized growth?
**A:** 0.992

Data credit: PubChem BioAssay AID1159580
